Origin of values: PubChem BioAssay (NCI)

Test system: M14 melanoma
Assay: NCI tumour cell line growth inhibition, 48 h
Some molecules, each annotated with its measured TGI.

molecule | assay_target | TGI
N#CC(C#N)=Cn1c(=S)[nH]c2ccccc21 | M14 melanoma | > 100 µM

Query :: What value of TGI has been reported for the following molecule? `NCc1cc(O)c(O)c(O)c1`
Result :: > 100 µM

Query :: Same for CC(=O)C1=CCC2c3[nH]c4ccccc4c3CCN2C1 (stereo unspecified)
Result :: > 100 µM

---

Test system: HOP-62 NSCLC
Experiment: NCI tumour cell line growth inhibition, 48 h
Some compounds, each annotated with its measured TGI.

compound | TGI
Nc1nc(N)c2nc(CNc3ccc(C(=O)NC(CCCCNC(=O)c4ccccc4C(=O)O)C(=O)O)cc3)cnc2n1 (centres undefined) | > 100 µM
Cc1ccc2c(=O)cc(-c3sc4ccccc4c3C)[nH]c2n1 | 75.4 µM
CCOP(=O)(OCC)/C(C#N)=C/c1c[nH]c2ccccc12 | > 100 µM
COc1ccc2nc(NC(=O)C(=O)C(C#N)c3ccc(Cl)c(Cl)c3)sc2c1 (centres undefined) | > 100 µM
CC(C)(C)C1CCC2c3c([nH]c4ccccc34)C3C(=O)N(c4ccc5c(c4)C(=O)c4ccccc4C5=O)C(=O)C3C2C1 (centres undefined) | > 100 µM
CC(CCCOC(c1ccccc1)(c1ccccc1)c1ccccc1)OC(=O)Nc1ccccc1 (centres undefined) | 28.1 µM
CNC(=O)OCC1C2=C(C(=O)C(C)=C(N)C2=O)N2CC3C(N3C)C12OC (centres undefined) | > 100 µM
CCN(CC)CCSCCCNc1c2ccc(Cl)cc2nc2ccc(OC)cc12 | 2.21 µM

Query :: What value of TGI has been reported for the following compound? O=C(NS(=O)(=O)c1ccccc1)C(Cc1ccccc1)C(Cc1ccccc1)C(=O)NS(=O)(=O)c1ccccc1 (centres undefined)
Result :: > 100 µM
